# test: Half-life was determined for the compound in cell extracts pre-incubated with EDTA
# Type: ADME
readoutKind: half-life (h)
Give the value, in units of h, as a plain number.

So what's the measured half-life for this one? CC(=O)N[C@@H](Cc1ccc(OP(=O)(O)OC[C@H]2O[C@@H](n3cc(C)c(=O)[nH]c3=O)C[C@@H]2N=[N+]=[N-])cc1)C(N)=O.Cl 166

====

# System: CCRF-CEM
# test: Cytotoxic concentration required to reduce the viability […] by 50% in CEM/TK cells
# Assay type: functional
# appliedConditions: Homo sapiens
readoutKind: CC50

As a guide, the following entries are already answered.
molecule | CC50
Cc1cn([C@H]2C[C@H](N=[N+]=[N-])[C@@H](COP(=O)(OCCSC(=O)C(C)(C)C)Oc3ccc(C[C@H](N)C(=O)O)cc3)O2)c(=O)[nH]c1=O (some centres undefined) | > 100 µM
Cc1cn([C@H]2C[C@H](N=[N+]=[N-])[C@@H](COP(=O)(OCCSC(=O)C(C)(C)C)Oc3ccc(C[C@H](N)CO)cc3)O2)c(=O)[nH]c1=O (some centres undefined) | > 100 µM
CC(=O)N[C@@H](Cc1ccc(OP(=O)(OCCSC(=O)C(C)(C)C)OC[C@H]2O[C@@H](n3cc(C)c(=O)[nH]c3=O)C[C@@H]2N=[N+]=[N-])cc1)C(N)=O (some centres undefined) | > 10 µM

Next:
So what's the measured CC50 for this one? Cc1cn([C@H]2C[C@H](N=[N+]=[N-])[C@@H](CO)O2)c(=O)[nH]c1=O > 100 µM

====

# System: CEM-SS
# test: Effective concentration required to inhibit the replication of HIV-1 by 50% in CEM-SS cells
# Format: functional, cell-based
# appliedConditions: Homo sapiens
readoutKind: pEC50
Bear in mind: pEC50 is minus log10 of a mol/L concentration; give just that figure.

compound | pEC50
Cc1cn([C@H]2C[C@H](N=[N+]=[N-])[C@@H](COP(=O)(OCCSC(=O)C(C)(C)C)Oc3ccc(C[C@H]4COC(C)(C)N4C(=O)OC(C)(C)C)cc3)O2)c(=O)[nH]c1=O (stereo partly specified) | 7.51
Cc1cn([C@H]2C[C@H](N=[N+]=[N-])[C@@H](COP(=O)(OCCSC(=O)C(C)(C)C)Oc3ccc(C[C@H](N)CO)cc3)O2)c(=O)[nH]c1=O (stereo partly specified) | 8.15
Cc1cn([C@H]2C[C@H](N=[N+]=[N-])[C@@H](COP(=O)(OCCSC(=O)C(C)(C)C)Oc3ccc(C[C@H](N)C(=O)O)cc3)O2)c(=O)[nH]c1=O (stereo partly specified) | 8.22
Cc1cn([C@H]2C[C@H](N=[N+]=[N-])[C@@H](COP(=O)(OCCSC(=O)C(C)(C)C)Oc3ccc(C[C@H](N)C(N)=O)cc3)O2)c(=O)[nH]c1=O (stereo partly specified) | 8.70
Cc1cn([C@H]2C[C@H](N=[N+]=[N-])[C@@H](COP(=O)(OCCSC(=O)C(C)(C)C)Oc3ccc(C[C@@H](CO)NC(=O)OC(C)(C)C)cc3)O2)c(=O)[nH]c1=O (stereo partly specified) | 7.77

So what's the measured pEC50 for this one? Cc1cn([C@H]2C[C@H](N=[N+]=[N-])[C@@H](CO)O2)c(=O)[nH]c1=O 8.52

====

# Test system: MT4
# test: Cytotoxic concentration required to reduce the viability […] by 50% MT-4 cells
# Assay type: functional
# appliedConditions: Homo sapiens
Item-by-item account of CC50

As a guide, the following entries are already answered.
compound | CC50
Cc1cn([C@H]2C[C@H](N=[N+]=[N-])[C@@H](COP(=O)(OCCSC(=O)C(C)(C)C)Oc3ccc(C[C@H](NC(=O)OC(C)(C)C)C(=O)N(C(=O)OC(C)(C)C)C(=O)OC(C)(C)C)cc3)O2)c(=O)[nH]c1=O (some centres undefined) | > 10 µM
CC(=O)N(C(=O)OC(C)(C)C)[C@@H](Cc1ccc(OP(=O)(OCCSC(=O)C(C)(C)C)OC[C@H]2O[C@@H](n3cc(C)c(=O)[nH]c3=O)C[C@@H]2N=[N+]=[N-])cc1)C(=O)N(C(=O)OC(C)(C)C)C(=O)OC(C)(C)C (some centres undefined) | > 10 µM
Cc1cn([C@H]2C[C@H](N=[N+]=[N-])[C@@H](COP(=O)(OCCSC(=O)C(C)(C)C)Oc3ccc(C[C@H]4COC(C)(C)N4C(=O)OC(C)(C)C)cc3)O2)c(=O)[nH]c1=O (some centres undefined) | > 10 µM
Cc1cn([C@H]2C[C@H](N=[N+]=[N-])[C@@H](COP(=O)(OCCSC(=O)C(C)(C)C)Oc3ccc(C[C@H](N)C(=O)O)cc3)O2)c(=O)[nH]c1=O (some centres undefined) | > 10 µM
Cc1cn([C@H]2C[C@H](N=[N+]=[N-])[C@@H](COP(=O)(OCCSC(=O)C(C)(C)C)Oc3ccc(C[C@@H](CO)NC(=O)OC(C)(C)C)cc3)O2)c(=O)[nH]c1=O (some centres undefined) | > 10 µM

So what's the measured CC50 for this one? Cc1cn([C@H]2C[C@H](N=[N+]=[N-])[C@@H](CO)O2)c(=O)[nH]c1=O > 100 µM

Okay, and CC(=O)N[C@@H](Cc1ccc(OP(=O)(OCCSC(=O)C(C)(C)C)OC[C@H]2O[C@@H](n3cc(C)c(=O)[nH]c3=O)C[C@@H]2N=[N+]=[N-])cc1)C(N)=O (some centres undefined) ? > 10 µM

Okay, and Cc1cn([C@H]2C[C@H](N=[N+]=[N-])[C@@H](COP(=O)(OCCSC(=O)C(C)(C)C)Oc3ccc(C[C@H](N)C(N)=O)cc3)O2)c(=O)[nH]c1=O (some centres undefined) ? > 10 µM

Okay, and Cc1cn([C@H]2C[C@H](N=[N+]=[N-])[C@@H](COP(=O)(OCCSC(=O)C(C)(C)C)Oc3ccc(C[C@H](N)CO)cc3)O2)c(=O)[nH]c1=O (some centres undefined) ? > 100 µM

====

# test: In vitro Apparent partition coefficients of mixed aryl phosphodiester was determined
# Assay type: physicochemical
# appliedConditions: octanol/water
# logD >= 2 gives y, anything below gives n

Examples with answers:
compound | assignedCategory
Cc1cn([C@H]2C[C@H](N=[N+]=[N-])[C@@H](COP(=O)(OCCSC(=O)C(C)(C)C)Oc3ccc(C[C@@H](CO)NC(=O)OC(C)(C)C)cc3)O2)c(=O)[nH]c1=O (some centres undefined) | y
CC(=O)N(C(=O)OC(C)(C)C)[C@@H](Cc1ccc(OP(=O)(OCCSC(=O)C(C)(C)C)OC[C@H]2O[C@@H](n3cc(C)c(=O)[nH]c3=O)C[C@@H]2N=[N+]=[N-])cc1)C(=O)N(C(=O)OC(C)(C)C)C(=O)OC(C)(C)C (some centres undefined) | y
Cc1cn([C@H]2C[C@H](N=[N+]=[N-])[C@@H](COP(=O)(OCCSC(=O)C(C)(C)C)Oc3ccc(C[C@H](N)C(=O)O)cc3)O2)c(=O)[nH]c1=O (some centres undefined) | n
Cc1cn([C@H]2C[C@H](N=[N+]=[N-])[C@@H](COP(=O)(OCCSC(=O)C(C)(C)C)Oc3ccc(C[C@H](NC(=O)OC(C)(C)C)C(=O)N(C(=O)OC(C)(C)C)C(=O)OC(C)(C)C)cc3)O2)c(=O)[nH]c1=O (some centres undefined) | y
Cc1cn([C@H]2C[C@H](N=[N+]=[N-])[C@@H](CO)O2)c(=O)[nH]c1=O | n
Cc1cn([C@H]2C[C@H](N=[N+]=[N-])[C@@H](COP(=O)(OCCSC(=O)C(C)(C)C)Oc3ccc(C[C@H]4COC(C)(C)N4C(=O)OC(C)(C)C)cc3)O2)c(=O)[nH]c1=O (some centres undefined) | y

I'd appreciate it if you could say whether Cc1cn([C@H]2C[C@H](N=[N+]=[N-])[C@@H](COP(=O)(OCCSC(=O)C(C)(C)C)Oc3ccc(C[C@H](N)CO)cc3)O2)c(=O)[nH]c1=O (some centres undefined) has logD at least equal to 2. n

Okay, and CC(=O)N[C@@H](Cc1ccc(OP(=O)(OCCSC(=O)C(C)(C)C)OC[C@H]2O[C@@H](n3cc(C)c(=O)[nH]c3=O)C[C@@H]2N=[N+]=[N-])cc1)C(N)=O (some centres undefined) ? n

Okay, and Cc1cn([C@H]2C[C@H](N=[N+]=[N-])[C@@H](COP(=O)(OCCSC(=O)C(C)(C)C)Oc3ccc(C[C@H](N)C(N)=O)cc3)O2)c(=O)[nH]c1=O (some centres undefined) ? n

====

# Test system: CEM-SS
# test: Cytotoxic concentration required to reduce the viability […] by 50% in CEM-SS cells
# Assay type: functional
# appliedConditions: Homo sapiens
readoutKind: CC50

So what's the measured CC50 for this one? Cc1cn([C@H]2C[C@H](N=[N+]=[N-])[C@@H](COP(=O)(OCCSC(=O)C(C)(C)C)Oc3ccc(C[C@H](N)CO)cc3)O2)c(=O)[nH]c1=O (stereo partly drawn) > 100 µM

Okay, and Cc1cn([C@H]2C[C@H](N=[N+]=[N-])[C@@H](COP(=O)(OCCSC(=O)C(C)(C)C)Oc3ccc(C[C@H](N)C(=O)O)cc3)O2)c(=O)[nH]c1=O (stereo partly drawn) ? > 100 µM

Okay, and CC(=O)N(C(=O)OC(C)(C)C)[C@@H](Cc1ccc(OP(=O)(OCCSC(=O)C(C)(C)C)OC[C@H]2O[C@@H](n3cc(C)c(=O)[nH]c3=O)C[C@@H]2N=[N+]=[N-])cc1)C(=O)N(C(=O)OC(C)(C)C)C(=O)OC(C)(C)C (stereo partly drawn) ? > 10 µM

Okay, and Cc1cn([C@H]2C[C@H](N=[N+]=[N-])[C@@H](COP(=O)(OCCSC(=O)C(C)(C)C)Oc3ccc(C[C@H](N)C(N)=O)cc3)O2)c(=O)[nH]c1=O (stereo partly drawn) ? > 10 µM

Okay, and Cc1cn([C@H]2C[C@H](N=[N+]=[N-])[C@@H](COP(=O)(OCCSC(=O)C(C)(C)C)Oc3ccc(C[C@H](NC(=O)OC(C)(C)C)C(=O)N(C(=O)OC(C)(C)C)C(=O)OC(C)(C)C)cc3)O2)c(=O)[nH]c1=O (stereo partly drawn) ? > 10 µM

Okay, and CC(=O)N[C@@H](Cc1ccc(OP(=O)(OCCSC(=O)C(C)(C)C)OC[C@H]2O[C@@H](n3cc(C)c(=O)[nH]c3=O)C[C@@H]2N=[N+]=[N-])cc1)C(N)=O (stereo partly drawn) ? > 10 µM

Okay, and Cc1cn([C@H]2C[C@H](N=[N+]=[N-])[C@@H](CO)O2)c(=O)[nH]c1=O ? > 100 µM

Okay, and Cc1cn([C@H]2C[C@H](N=[N+]=[N-])[C@@H](COP(=O)(OCCSC(=O)C(C)(C)C)Oc3ccc(C[C@H]4COC(C)(C)N4C(=O)OC(C)(C)C)cc3)O2)c(=O)[nH]c1=O (stereo partly drawn) ? > 10 µM

The measurements presented in this section are drawn from ChEMBL document CHEMBL1144910.
